Data origin, for the record: patent US4695648A

target: 15-hydroxy-prostaglandin dehydrogenase (PGDH) (Homo sapiens, UniProt P15428); construct: cell-free preparations of human placenta (containing PGDH); assay: Inhibition of 15-Hydroxy Prostaglandin Dehydrogenase (in vitro, cell-free preparations of human placenta, radioactive PGF2 degradation); conditions: 50% inhibition of degradation of radioactive PGF2 vs controls without inhibitor
pIC50: −log10 of the molar value.
Label 1 when pIC50 is at or above 6; otherwise label -1.

| GIVEN SMILES | CATEGORY |
| --- | --- |
| O=C(O)Cc1cc(C(=O)c2ccc(Cl)cc2Cl)ccc1O | 1 |
| O=C(O)Cc1cc(C=Cc2ccccc2)ccc1O | -1 |
| CC(=O)c1ccc(C(=O)c2ccc(O)c(CC(=O)O)c2)cc1 | 1 |
| COc1ccc(C=CC(=O)c2ccc(O)c(CC(=O)O)c2)cc1 | -1 |
| O=C(O)Cc1cc(C(=O)c2ccc(F)cc2)ccc1O | 1 |

* * *

This listing pairs compounds with measured pIC50.
target: 15-hydroxy-prostaglandin dehydrogenase (PGDH) (Homo sapiens, UniProt P15428); construct: cell-free preparations of human placenta (containing PGDH); assay: Inhibition of 15-Hydroxy Prostaglandin Dehydrogenase (in vitro, cell-free preparations of human placenta, radioactive PGF2 degradation); conditions: 50% inhibition of degradation of radioactive PGF2 vs controls without inhibitor
pIC50: −log10 of the molar value.

| GIVEN SMILES | pIC50 |
| --- | --- |
| O=C(O)Cc1cc(C(=O)Cc2ccc(C(=O)O)cc2)ccc1O | 5.77 |
| O=C(O)Cc1cc(C(=O)c2ccccc2)cc(Br)c1O | 4.38 |
| Cc1cc(C)cc(C(=O)c2ccc(O)c(CC(=O)O)c2)c1 | 4.66 |
| COC(=O)Cc1cc(C(=O)c2ccc(F)cc2)ccc1O | 5.31 |
| O=C(O)Cc1cc(C(=O)c2cccc(F)c2)ccc1O | 5.89 |

* * *

Molecular target: 15-hydroxy-prostaglandin dehydrogenase (PGDH) (Homo sapiens, UniProt P15428)
Construct: cell-free preparations of human placenta (containing PGDH)
Sequence (P15428 1-266): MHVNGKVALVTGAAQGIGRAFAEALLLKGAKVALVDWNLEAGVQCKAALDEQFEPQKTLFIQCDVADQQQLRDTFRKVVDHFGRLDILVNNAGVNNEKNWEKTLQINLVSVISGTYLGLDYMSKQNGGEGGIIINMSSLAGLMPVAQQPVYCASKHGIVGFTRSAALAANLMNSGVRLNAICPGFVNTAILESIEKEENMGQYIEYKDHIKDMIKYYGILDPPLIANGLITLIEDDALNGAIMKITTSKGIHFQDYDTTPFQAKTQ
Assay: Inhibition of 15-Hydroxy Prostaglandin Dehydrogenase (in vitro, cell-free preparations of human placenta, radioactive PGF2 degradation)
Settings: 50% inhibition of degradation of radioactive PGF2 vs controls without inhibitor
pIC50: −log10 of the molar value.
METRIC: pIC50

| MOLECULE | VALUE REPORTED |
| --- | --- |
| O=C(O)Cc1cc(C(=O)c2ccccc2F)ccc1O | 6.13 |
| O=C(O)Cc1cc(C=Cc2ccc(C(=O)O)cc2)ccc1O | 6.40 |
| O=C(O)Cc1cc(N=Nc2ccccc2)ccc1O [5-phenylazo-2-hydroxybenzeneacetic acid, reference compound] | 4.92 |
| N#Cc1ccc(C(=O)c2ccc(O)c(CC(=O)O)c2)cc1 | 6.13 |
| O=C(O)Cc1cc(C(=O)Cc2ccccc2)ccc1O | 4.25 |
| O=C(O)Cc1cc(C(=O)C=Cc2ccccc2)ccc1O | 4.92 |
| O=C(O)Cc1cc(C(=O)c2cccc(C(=O)O)c2)ccc1O | 5.22 |
| O=C(O)Cc1cc(C(=O)c2ccc(Cl)cc2)ccc1O | 6.22 |
| O=C(O)Cc1cc(C(=O)c2c(F)cccc2F)ccc1O | 6.42 |

* * *

target: 15-hydroxy-prostaglandin dehydrogenase (PGDH) (Homo sapiens); construct: cell-free preparations of human placenta (containing PGDH); from tissue; host or cells: human placenta, cell-free preparation; assay: Inhibition of 15-Hydroxy Prostaglandin Dehydrogenase (in vitro, cell-free preparations of human placenta, radioactive PGF2 degradation); type: biochemical; settings: 50% inhibition of degradation of radioactive PGF2 vs controls without inhibitor
pIC50: −log10 of the molar value.

| COMPOUND | TARGET DESC | pIC50 |
| --- | --- | --- |
| O=C(O)Cc1cc(C(=O)c2ccccc2)ccc1O [Example 1, 5-Benzoyl-2-hydroxy-benzeneacetic acid] | 15-hydroxy-prostaglandin dehydrogenase (PGDH) (Homo sapiens) | 5.85 |
| CC(C)c1ccc(C=CC(=O)c2ccc(O)c(CC(=O)O)c2)cc1 | 15-hydroxy-prostaglandin dehydrogenase (PGDH) (Homo sapiens) | 5.89 |
| O=C(O)Cc1cc(C(=O)c2ccc(C(=O)O)cc2)ccc1O | 15-hydroxy-prostaglandin dehydrogenase (PGDH) (Homo sapiens) | 5.89 |
| O=C(O)Cc1cc(C(=O)C=Cc2ccc(C(=O)O)cc2)ccc1O | 15-hydroxy-prostaglandin dehydrogenase (PGDH) (Homo sapiens) | 5.85 |
